# Experiment Notes: In vivo pharmacokinetics study in healthy subjects, 75-450 mg single dose, fasting (Test Example 2)
# Parameters: species or system human (healthy male subjects)
# Measurement Context: human, plasma; after Formulation 5, dose group A 75 mg (equal SNAC content), single oral, fasting, healthy male subjects, N = 16; Mean ± SD; read-out: AUC0-t of SNAC
Property: AUC(0-t) (ng·h/mL)
One number for each entry, in ng·h/mL.

Using known records, supply AUC(0-t) for O=C([O-])CCCCCCCNC(=O)c1ccccc1O.[Na+] [SNAC, sodium 8-(salicylamido)caprylate]
291

###

# Experiment Notes: In vivo pharmacokinetics study in healthy subjects, 75-450 mg single dose, fasting (Test Example 2)
# Design: species or system human (healthy male subjects)
# Measurement Context: human, blood; after Formulation 5, dose group D 450 mg (equal SNAC content), single oral, fasting, healthy male subjects, N = 15; Mean ± SD; read-out: AUC0-∞ of SNAC
Property: AUC(0-inf) (ng·h/mL)
Give bare numbers, in ng·h/mL.

Using known records, supply AUC(0-inf) for O=C([O-])CCCCCCCNC(=O)c1ccccc1O.[Na+] [SNAC, sodium 8-(salicylamido)caprylate]
2130

###

# Experiment Notes: In vivo pharmacokinetics study in healthy subjects, 75-450 mg single dose, fasting (Test Example 2)
# Parameters: species or system human (healthy male subjects)
# Measurement Context: human, plasma; after Formulation 5, dose group B 150 mg (equal SNAC content), single oral, fasting, healthy male subjects, N = 15; Mean ± SD; read-out: AUC0-∞ of SNAC
# Description: To study the pharmacokinetic characteristics of 75 mg, 150 mg, 300 mg and 450 mg doses of abiraterone acetate tablets in healthy subjects after a single oral administration under fasting state. A single-center, open-label, sequential trial design was applied. […] The blood concentration of abiraterone at different time points after dosing was determined by HPLC-MS/MS. Pharmacokinetic parameters were calculated using non-compartmental model and statistically analyzed. […]
Property: AUC(0-inf) (ng·h/mL)
Answers are plain numbers, in ng·h/mL.

Using known records, supply AUC(0-inf) for O=C([O-])CCCCCCCNC(=O)c1ccccc1O.[Na+] [SNAC, sodium 8-(salicylamido)caprylate]
672

###

# Experiment Notes: In vivo pharmacokinetics study in healthy subjects, 75-450 mg single dose, fasting (Test Example 2)
# Design: species or system human (healthy male subjects)
# Measurement Context: human, plasma; after Formulation 5, dose group C 300 mg (equal SNAC content), single oral, fasting, healthy male subjects, N = 15; Mean ± SD; read-out: Vz/F of SNAC
Property: Vd/F (L)
Answers are plain numbers, in L.

Using known records, supply Vd/F for O=C([O-])CCCCCCCNC(=O)c1ccccc1O.[Na+] [SNAC, sodium 8-(salicylamido)caprylate]
1740

###

# Experiment Notes: In vivo food effects study in healthy subjects (Test Example 3)
# Design: species or system human (healthy male subjects)
# Measurement Context: male, human, plasma, po, 300 mg, after Test Formulation 300 mg single oral, fasting state, N = 23, Mean ± SD, read-out: Vz/F of SNAC
Property: Vd/F (L)
Give bare numbers, in L.

Using known records, supply Vd/F for O=C([O-])CCCCCCCNC(=O)c1ccccc1O.[Na+] [SNAC, sodium 8-(salicylamido)caprylate]
1.62

###

# Experiment Notes: In vivo pharmacokinetics study in healthy subjects, 75-450 mg single dose, fasting (Test Example 2)
# Set-up: species or system human (healthy male subjects)
# Measurement Context: human, plasma; after Formulation 5, dose group C 300 mg (equal SNAC content), single oral, fasting, healthy male subjects, N = 15; Mean ± SD; read-out: AUC0-∞ of SNAC
Property: AUC(0-inf)
# include the unit after the value

Using known records, supply AUC(0-inf) for O=C([O-])CCCCCCCNC(=O)c1ccccc1O.[Na+] [SNAC, sodium 8-(salicylamido)caprylate]
1410 ng·h/mL
